These measurements were taken from PubChem BioAssay AID1963430.

system: 521955-158-R2-J5-PDC complex spheroid growth, % test/control; experiment: Anticancer human tumor 521955-158-R2-J5-PDC patient-derived pancreatic carcinoma cell line growth inhibition [Asc]; details: second compound 1 µM; first compound 0.00949 µM; hits give low values
viability, T/C strictly under 60% means 1 (yes); at 60% or over means 0 (no).

For orientation, consider the following solved cases.
Cc1nc(N2CCC3(CC2)COC(C)C3N)c(CO)nc1Sc1ccnc(N)c1Cl (stereo unspecified) + Cc1c(S(C)(=O)=O)c(-c2cc(F)cc(N3CCN(c4ccc(NS(=O)(=O)c5ccc(NC(CCN6CCC(C(=O)OCCCP(=O)(O)O)CC6)CSc6ccccc6)c(S(=O)(=O)C(F)(F)F)c5)cc4)CC3)c2)c(-c2ccc(Cl)cc2)n1C(C)C: 0 (no)
Cc1nc(N2CCC3(CC2)COC(C)C3N)c(CO)nc1Sc1ccnc(N)c1Cl (stereo unspecified) + CNC(C)C(=O)NC1CN(S(=O)(=O)c2cccc(S(=O)(=O)N3CCC4CCC(C(=O)NC(c5ccccc5)c5ccccc5)N4C(=O)C(NC(=O)C(C)NC)C3)c2)CCC2CCC(C(=O)NC(c3ccccc3)c3ccccc3)N2C1=O: 0 (no)
CCN1C(C(=O)NC23CCC(C(=O)O)(CC2)CC3)C(c2cccc(Cl)c2F)C2(C(=O)Nc3cc(Cl)ccc32)C12CCCCC2 (stereo unspecified) + Cc1c(S(C)(=O)=O)c(-c2cc(F)cc(N3CCN(c4ccc(NS(=O)(=O)c5ccc(NC(CCN6CCC(C(=O)OCCCP(=O)(O)O)CC6)CSc6ccccc6)c(S(=O)(=O)C(F)(F)F)c5)cc4)CC3)c2)c(-c2ccc(Cl)cc2)n1C(C)C: 0 (no)

Lab note: viability, T/C threshold 60%. Does this compound come in strictly under it? NC(=O)C(=Cn1cnc(-c2cc(C(F)(F)F)cc(C(F)(F)F)c2)n1)c1cncnc1 + CNC(C)C(=O)NC1CN(S(=O)(=O)c2cccc(S(=O)(=O)N3CCC4CCC(C(=O)NC(c5ccccc5)c5ccccc5)N4C(=O)C(NC(=O)C(C)NC)C3)c2)CCC2CCC(C(=O)NC(c3ccccc3)c3ccccc3)N2C1=O
0 (no)

Lab note: viability, T/C threshold 60%. Does this compound come in strictly under it? NC(=O)C(=Cn1cnc(-c2cc(C(F)(F)F)cc(C(F)(F)F)c2)n1)c1cncnc1 + Cc1c(S(C)(=O)=O)c(-c2cc(F)cc(N3CCN(c4ccc(NS(=O)(=O)c5ccc(NC(CCN6CCC(C(=O)OCCCP(=O)(O)O)CC6)CSc6ccccc6)c(S(=O)(=O)C(F)(F)F)c5)cc4)CC3)c2)c(-c2ccc(Cl)cc2)n1C(C)C
1 (yes)

Lab note: viability, T/C threshold 60%. Does this compound come in strictly under it? CCN1C(C(=O)NC23CCC(C(=O)O)(CC2)CC3)C(c2cccc(Cl)c2F)C2(C(=O)Nc3cc(Cl)ccc32)C12CCCCC2 (stereo unspecified) + CNC(C)C(=O)NC1CN(S(=O)(=O)c2cccc(S(=O)(=O)N3CCC4CCC(C(=O)NC(c5ccccc5)c5ccccc5)N4C(=O)C(NC(=O)C(C)NC)C3)c2)CCC2CCC(C(=O)NC(c3ccccc3)c3ccccc3)N2C1=O
0 (no)

====

Test system: 521955-158-R2-J5-PDC complex spheroid growth, % test/control
Test: Anticancer human tumor 521955-158-R2-J5-PDC cell line growth inhibition [Asc];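 also: spheroids exposed to agents for 7 days before readout; 100% = DMSO vehicle control viability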
Conditions: second compound 0.316 µM; first compound 0.949 µM; hits give low values
Excerpt: Multicellular complex tumor spheroid response to apoptosis pathway targeting inhibitors Alrizomadlin, Pelcitoclax, and Dasminapant in combination with a variety of drugs and investigational agents in selected tumor cell lines […] Compounds. […] If the clinical Cmax for an agent had not been determined, the highest concentration tested was 10 microM. […]
READOUT LABEL: viability, T/C (%)
State just the number; it will be interpreted in %.

Past entries and their recorded results:
CCN1C(C(=O)NC23CCC(C(=O)O)(CC2)CC3)C(c2cccc(Cl)c2F)C2(C(=O)Nc3cc(Cl)ccc32)C12CCCCC2 (centres undefined) + CNC(C)C(=O)NC1CN(S(=O)(=O)c2cccc(S(=O)(=O)N3CCC4CCC(C(=O)NC(c5ccccc5)c5ccccc5)N4C(=O)C(NC(=O)C(C)NC)C3)c2)CCC2CCC(C(=O)NC(c3ccccc3)c3ccccc3)N2C1=O: 96.1
Cc1nc(N2CCC3(CC2)COC(C)C3N)c(CO)nc1Sc1ccnc(N)c1Cl (centres undefined) + Cc1c(S(C)(=O)=O)c(-c2cc(F)cc(N3CCN(c4ccc(NS(=O)(=O)c5ccc(NC(CCN6CCC(C(=O)OCCCP(=O)(O)O)CC6)CSc6ccccc6)c(S(=O)(=O)C(F)(F)F)c5)cc4)CC3)c2)c(-c2ccc(Cl)cc2)n1C(C)C: 30.4
Cc1nc(N2CCC3(CC2)COC(C)C3N)c(CO)nc1Sc1ccnc(N)c1Cl (centres undefined) + CNC(C)C(=O)NC1CN(S(=O)(=O)c2cccc(S(=O)(=O)N3CCC4CCC(C(=O)NC(c5ccccc5)c5ccccc5)N4C(=O)C(NC(=O)C(C)NC)C3)c2)CCC2CCC(C(=O)NC(c3ccccc3)c3ccccc3)N2C1=O: 53.9

Next compound, viability, T/C to be filled in.
Briefly, viability, T/C measured for CCN1C(C(=O)NC23CCC(C(=O)O)(CC2)CC3)C(c2cccc(Cl)c2F)C2(C(=O)Nc3cc(Cl)ccc32)C12CCCCC2 (centres undefined) + Cc1c(S(C)(=O)=O)c(-c2cc(F)cc(N3CCN(c4ccc(NS(=O)(=O)c5ccc(NC(CCN6CCC(C(=O)OCCCP(=O)(O)O)CC6)CSc6ccccc6)c(S(=O)(=O)C(F)(F)F)c5)cc4)CC3)c2)c(-c2ccc(Cl)cc2)n1C(C)C : 76

====

system: 521955-158-R2-J5-PDC complex spheroid growth, % test/control; test: Anticancer human tumor 521955-158-R2-J5-PDC cell line growth inhibition [Asc]; details: second compound 0.316 µM; first compound 10 µM; active = viability on the fitted dose curve at most 10% of control; inactive = the rest;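 also: spheroids exposed to agents for 7 days before readout; 100% = DMSO vehicle control viability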
Pick from active, inactive when you respond.

C=C(F)C(=O)N1CCN(c2nc(OCC3CCCN3C)nc3c2CCN(c2cccc4cccc(Cl)c24)C3)CC1CC#N (stereo not drawn) + Cc1c(S(C)(=O)=O)c(-c2cc(F)cc(N3CCN(c4ccc(NS(=O)(=O)c5ccc(NC(CCN6CCC(C(=O)OCCCP(=O)(O)O)CC6)CSc6ccccc6)c(S(=O)(=O)C(F)(F)F)c5)cc4)CC3)c2)c(-c2ccc(Cl)cc2)n1C(C)C: active

Dear all, I need the recorded test outcome for O=C(c1cc(Cc2n[nH]c(=O)c3ccccc23)ccc1F)N1CCN(C(=O)C2CC2)CC1 + CNC(C)C(=O)NC1CN(S(=O)(=O)c2cccc(S(=O)(=O)N3CCC4CCC(C(=O)NC(c5ccccc5)c5ccccc5)N4C(=O)C(NC(=O)C(C)NC)C3)c2)CCC2CCC(C(=O)NC(c3ccccc3)c3ccccc3)N2C1=O , thank you.
inactive

Dear all, I need the recorded test outcome for C=C(F)C(=O)N1CCN(c2nc(OCC3CCCN3C)nc3c2CCN(c2cccc4cccc(Cl)c24)C3)CC1CC#N (stereo not drawn) + CNC(C)C(=O)NC1CN(S(=O)(=O)c2cccc(S(=O)(=O)N3CCC4CCC(C(=O)NC(c5ccccc5)c5ccccc5)N4C(=O)C(NC(=O)C(C)NC)C3)c2)CCC2CCC(C(=O)NC(c3ccccc3)c3ccccc3)N2C1=O , thank you.
active

====

system: 521955-158-R2-J5-PDC complex spheroid growth, % test/control; assay: Anticancer human tumor 521955-158-R2-J5-PDC cell line growth inhibition [Asc]; conditions: second compound 1 µM; first compound 1 µM; hits give low values;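 also: spheroids exposed to agents for 7 days before readout; 100% = DMSO vehicle control viability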
READOUT LABEL: viability, T/C

C=C(F)C(=O)N1CCN(c2nc(OCC3CCCN3C)nc3c2CCN(c2cccc4cccc(Cl)c24)C3)CC1CC#N (configuration not stated) + CNC(C)C(=O)NC1CN(S(=O)(=O)c2cccc(S(=O)(=O)N3CCC4CCC(C(=O)NC(c5ccccc5)c5ccccc5)N4C(=O)C(NC(=O)C(C)NC)C3)c2)CCC2CCC(C(=O)NC(c3ccccc3)c3ccccc3)N2C1=O: 94.7%
COc1c(OCCCN2CCOCC2)ccc2c3n(c(=NC(=O)c4cnc(N)nc4)nc12)CCN3 + CNC(C)C(=O)NC1CN(S(=O)(=O)c2cccc(S(=O)(=O)N3CCC4CCC(C(=O)NC(c5ccccc5)c5ccccc5)N4C(=O)C(NC(=O)C(C)NC)C3)c2)CCC2CCC(C(=O)NC(c3ccccc3)c3ccccc3)N2C1=O: 12.9%
C#Cc1c(F)ccc2cc(O)cc(-c3ncc4c(N5CC6CCC(C5)N6)nc(OCC56CCCN5CC(F)C6)nc4c3F)c12 (configuration not stated) + CNC(C)C(=O)NC1CN(S(=O)(=O)c2cccc(S(=O)(=O)N3CCC4CCC(C(=O)NC(c5ccccc5)c5ccccc5)N4C(=O)C(NC(=O)C(C)NC)C3)c2)CCC2CCC(C(=O)NC(c3ccccc3)c3ccccc3)N2C1=O: 26.6%
O=C(c1ccc(F)c(F)c1Nc1ccc(I)cc1F)N1CC(O)([C@@H]2CCCCN2)C1 + CNC(C)C(=O)NC1CN(S(=O)(=O)c2cccc(S(=O)(=O)N3CCC4CCC(C(=O)NC(c5ccccc5)c5ccccc5)N4C(=O)C(NC(=O)C(C)NC)C3)c2)CCC2CCC(C(=O)NC(c3ccccc3)c3ccccc3)N2C1=O: 17.3%
CCN1CCN(Cc2ccc(Nc3ncc(F)c(-c4cc(F)c5nc(C)n(C(C)C)c5c4)n3)nc2)CC1 + Cc1c(S(C)(=O)=O)c(-c2cc(F)cc(N3CCN(c4ccc(NS(=O)(=O)c5ccc(NC(CCN6CCC(C(=O)OCCCP(=O)(O)O)CC6)CSc6ccccc6)c(S(=O)(=O)C(F)(F)F)c5)cc4)CC3)c2)c(-c2ccc(Cl)cc2)n1C(C)C: 114%

Briefly, viability, T/C measured for O=C(c1cc(Cc2n[nH]c(=O)c3ccccc23)ccc1F)N1CCN(C(=O)C2CC2)CC1 + Cc1c(S(C)(=O)=O)c(-c2cc(F)cc(N3CCN(c4ccc(NS(=O)(=O)c5ccc(NC(CCN6CCC(C(=O)OCCCP(=O)(O)O)CC6)CSc6ccccc6)c(S(=O)(=O)C(F)(F)F)c5)cc4)CC3)c2)c(-c2ccc(Cl)cc2)n1C(C)C : 45.6%

Briefly, viability, T/C measured for O=C(c1cc(Cc2n[nH]c(=O)c3ccccc23)ccc1F)N1CCN(C(=O)C2CC2)CC1 + CNC(C)C(=O)NC1CN(S(=O)(=O)c2cccc(S(=O)(=O)N3CCC4CCC(C(=O)NC(c5ccccc5)c5ccccc5)N4C(=O)C(NC(=O)C(C)NC)C3)c2)CCC2CCC(C(=O)NC(c3ccccc3)c3ccccc3)N2C1=O : 67.6%
